These measurements were taken from PubChem BioAssay (NCI).

- METHOD_DESCRIPTION: NCI Yeast Anticancer Drug Screen. Data for the sgs1 mgt1 strain (AID 161);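 note: 0% = growth of cultures given vehicle only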
- TEST_PARAMETERS: S. cerevisiae sgs1 mgt1 strain, active compounds read high; at 50.0 µM unless noted
This is part of a sample that, as a whole, favours compounds with a hit. Of some 79,000 tested, about 15% had one in any assay.
MEASURED_ATTRIBUTE: growth inhibition (%)
Give a bare numeral; the unit % is implied.

// solved cases for growth inhibition follow
[[record]]
compound = "Cc1ccc(NC(=O)Oc2ccc(C(C)(C)C)cc2)cc1NC(=O)Oc1ccc(C(C)(C)C)cc1"
output_unit = "%"
reading = -6.35

[[record]]
compound = "N=C1OCCN1/N=C/c1ccc([N+](=O)[O-])o1"
output_unit = "%"
reading = 66.8

[[record]]
compound = "Nn1nnc2ccccc21"
output_unit = "%"
reading = 16.3


Quick check: growth inhibition of `NNC(=O)c1nc2ccccc2s1` ?
-8.3

growth inhibition lookup needed for `CC1=C(C(=O)Nc2cc(=O)n(C)c(=O)n2C)C(c2cccc([N+](=O)[O-])c2)C(C(=O)Nc2cc(=O)n(C)c(=O)n2C)=C(C)N1` , thanks.
24.9

So what's the measured growth inhibition for this one? `COc1ccc(/C=N/N=C(/C(=O)c2ccc(OC)cc2)c2ccc(OC)cc2)cc1`
11.8

Sample COC1/C=C/OC2(C)Oc3c(C)c(O)c4c(O)c(c(C5SCCS5)c(O)c4c3C2=O)NC(=O)C(C)=C/C=C\C(C)C(O)C(C)C2OC(C)(C)OC(C1C)C2C (stereo not given) — what was its growth inhibition?
22.8

growth inhibition for `BrC(Br)(Br)Br` ?
31.8

Need growth inhibition, item `CC(=O)c1cc(Cc2cc(C)cc(C)c2O)c(O)c(Cc2cc(C)cc(C)c2O)c1`
28.9

Entry `O=C1/C(=C/c2cccc(Cl)c2)CCCc2ccccc21` has what growth inhibition?
33.2

###

- METHOD_DESCRIPTION: NCI Yeast Anticancer Drug Screen. Data for the rad50 strain (AID 155);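 note: 0% = growth of vehicle-only cultures of the same strain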
- TEST_PARAMETERS: S. cerevisiae rad50 strain growth inhibition, active compounds read high; at 50.0 µM unless noted
- Description: Growth inhibition of yeast strains with defined genetic alterations is measured as a screen for potential anti-cancer activity. Selected strains with alterations in DNA damage repair or cell cycle control were exposed to compounds and growth inhibition was measured relative to vehicle treated controls. The strain used in this assay is rad50
The panel holds about 79,000 compounds, 15% with a hit somewhere; the sample as a whole holds those more often. Where a SMILES comes first, the peptide text is derived from it. The star is where a group is joined. Cbz = O=C(OCc1ccccc1)*; Boc = CC(C)(C)OC(=O)*; tBu = CC(C)(C)*
MEASURED_ATTRIBUTE: growth inhibition (%)
# output: bare number, implied unit %

[[record]]
molecule = "C=CCCC(=O)CC(=O)OCc1ccccc1"
measured_attribute = "growth inhibition"
reading = -7.2


Param item = CC(OC(C)(C)C)C(NC(=O)C(CCCCNC(=O)OC(C)(C)C)NC(=O)C(Cc1c[nH]c2ccccc12)NC(=O)C(Cc1ccccc1)NC(=O)OCc1ccccc1)C(=O)NC(Cc1ccccc1)C(=O)O (configuration not stated) (Cbz-FWK(Boc)T(tBu)F-OH; configuration not given here) ; retrieve measured growth inhibition.
-10.3

Any idea what its growth inhibition is? The molecule is CCOC(=O)C1CC2OC2CC1C(=O)OCC (configuration not stated)
0.55

Can you look up the measured growth inhibition of COc1ccc(C2S/C(=C\c3ccc([N+](=O)[O-])cc3)C(=O)N2NC(=O)Cc2ccccc2)cc1 (configuration not stated) for me?
17.9

Report growth inhibition for `O=C(O)CCc1cnc[nH]1` please.
-0.7

So what does the record say about growth inhibition for `CCCCCCC(=O)C/C(CCC(=O)N(Cc1ccccc1)Cc1ccccc1)=N\Nc1ccc([N+](=O)[O-])cc1[N+](=O)[O-]` ?
12.8

###

- METHOD_DESCRIPTION: NCI Yeast Anticancer Drug Screen. Data for the mec2-1 strain (AID 157)
- TEST_PARAMETERS: S. cerevisiae mec2-1 strain, active compounds read high; at 50.0 µM unless noted
- Method: Growth inhibition of yeast strains with defined genetic alterations is measured as a screen for potential anti-cancer activity. Selected strains with alterations in DNA damage repair or cell cycle control were exposed to compounds and growth inhibition was measured relative to vehicle treated controls. The strain used in this assay is mec2-1
About 79,000 compounds went through this panel and 15% of them were active in at least one assay; those are over-represented in the sample as a whole. Where a SMILES comes first, the peptide text is derived from it. The star is where a group is joined. Boc = CC(C)(C)OC(=O)*; OBn = c1ccc(CO*)cc1
MEASURED_ATTRIBUTE: growth inhibition (%)
The reply should be a number in %, with the unit left off.

[[record]]
molecule = "O=C(NCc1ccccc1)c1n[nH][nH]c1=O"
measured_attribute = "growth inhibition"
reading = 5.8

[[record]]
molecule = "c1ccc(CN2CCOC2)cc1"
measured_attribute = "growth inhibition"
reading = 5.85

[[record]]
molecule = "C=CCOC(=O)c1ccc(C(C)C)cc1"
measured_attribute = "growth inhibition"
reading = 12

[[record]]
molecule = "CC(C)CC(NC(=O)C(Cc1ccccc1)NC(=O)C(Cc1ccccc1)NC(=O)OC(C)(C)C)C(=O)OCc1ccccc1 (stereo not drawn) (Boc-Phe-Phe-Leu-OBn; configuration not given here)"
measured_attribute = "growth inhibition"
reading = -10.3

[[record]]
molecule = "COC1OCC(N=[N+]=[N-])C(OS(C)(=O)=O)C1OS(C)(=O)=O (stereo unspecified)"
measured_attribute = "growth inhibition"
reading = -4.3

[[record]]
molecule = "O=C1CSC(c2cccc([N+](=O)[O-])c2)N1c1nncs1 (stereo unspecified)"
measured_attribute = "growth inhibition"
reading = 11.7


// returns reported growth inhibition for input CC1(C)OCC2OC3(c4nc(C#N)c(N)o4)OC(C)(C)OC3C2O1 (stereo unspecified)
-7.05

###

Reported growth inhibition values are given for each entry in this list.
- METHOD_DESCRIPTION: NCI Yeast Anticancer Drug Screen. Data for the cln2 rad14 strain (AID 165);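 note: 0% = growth equal to vehicle treated cultures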
- TEST_PARAMETERS: S. cerevisiae cln2 rad14 strain, active compounds read high; at 50.0 µM unless noted
Compounds without any hit were thinned out: in the full panel of roughly 79,000, 15% have a hit.
Give your result in % as a bare value.

Worked cases, growth inhibition given:
[[record]]
compound = "CCOC(=O)Cn1c(=O)[nH]c(=O)c2c1ncn2Cc1ccccc1"
reading = 13.2

[[record]]
compound = "CN(C)c1ccc(-c2nc(-c3cc4c(ccc5ccccc54)oc3=O)cs2)cc1"
reading = 6.4

[[record]]
compound = "NC(=O)NN(Cc1ccc2c(c1)OCO2)N=O"
reading = -16.6

[[record]]
compound = "CC(C)CC(NC=O)C(=O)O (centres undefined)"
reading = 9.45

[[record]]
compound = "Cn1nnnc1NCc1ccccc1"
reading = -24.6


Attention now shifts to the item below.
Would you mind telling me what growth inhibition value was observed for `CCC1(CC)C(=O)NN(C(=O)c2ccc(Cl)cc2)C1=O` ?
7.15

###

- METHOD_DESCRIPTION: NCI Yeast Anticancer Drug Screen. Data for the rad50 strain (AID 155);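 note: 0% = growth of vehicle-only cultures of the same strain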
- TEST_PARAMETERS: S. cerevisiae rad50 strain growth inhibition, active compounds read high; at 50.0 µM unless noted
Compounds without any hit were thinned out: in the full panel of roughly 79,000, 15% have a hit. Where a SMILES comes first, the peptide text is derived from it. The star is where a group is joined. Cbz = O=C(OCc1ccccc1)*
Note to self: values exactly at 20% are Y. So growth inhibition at or above 20% is Y, below is N.

Dear colleague, could you confirm whether NC(=O)C(Cc1ccccc1)NC(=O)C(Cc1ccccc1)NC(=O)C(Cc1ccccc1)NC(=O)OCc1ccccc1 (stereo not drawn) (Cbz-Phe-Phe-Phe-NH2; configuration not given here) has growth inhibition at or above 20%?
Y

State whether the measured growth inhibition reaches 20%, counting equality as reaching it, for `ClC(Cl)(Cl)c1ncnc2nc[nH]c12`
N

###

- METHOD_DESCRIPTION: NCI Yeast Anticancer Drug Screen. Data for the mec2-1 strain (AID 157)
- TEST_PARAMETERS: S. cerevisiae mec2-1 strain; at 50.0 µM unless noted
This is part of a sample that, as a whole, favours compounds with a hit. Of some 79,000 tested, about 15% had one in any assay. The source made the active and inactive calls. No stated cut-off is given here; in the data, active means growth inhibition above about 70%; inactive means the rest.
I would appreciate it if you answered using one of these outcomes: t (active), f (inactive)

The examples below pair each entry with its known result.
[[record]]
compound = "O=C1Cc2c(-c3ccc(Cl)cc3)cc(-c3ccccc3)nc2-c2ccccc2N1"
assigned_class = "f"

[[record]]
compound = "CC(=O)CC(=O)N1CCc2ccccc21"
assigned_class = "f"

[[record]]
compound = "COC1C(O)C(n2ncc3c(SC)nc(SC)nc32)OC1C(O)CO (stereo not given)"
assigned_class = "f"


Could you kindly confirm the outcome this assay logged for CCCCN(CCCC)CC(C(=O)Nc1ccc([N+](=O)[O-])cc1[N+](=O)[O-])/C(C)=N\NC(=O)c1ccncc1 (stereo not given) ?
f

Can you look up the reported call for COC(=O)CCC(NC(=S)N/N=C(\C)c1ccco1)C(=O)OC (stereo not given) for me?
f

Short answer needed: outcome of this test for `COc1ccc(N2C(=O)C/C(=C/c3ccc(C(C)C)cc3)C2=O)cc1` ?
f

Called result for CCC(C)C(C#N)(CCN(CC)CC)c1ccccc1 (stereo not given)
f

Dear all, I need the recorded test outcome for Cc1ccc(C2SC(N)=Nc3c2c(C)nn3C(=O)c2ccc(Cl)cc2)cc1 (stereo not given) , thank you.
f

Could you check what this test reported for `CCOC(=O)c1[nH]c(C)c(C#N)c1C` ?
f

Which outcome did this test record for the compound `O=C(NCCO)c1c(O)c2ccccc2[nH]c1=O` ?
f

State the result this test recorded for `CCOc1ccc(N=Nc2c(O)n(-c3ccc(Cl)cc3)c(=S)n(-c3ccccc3)c2=O)cc1` .
f

Check the results log: what was the call for `Nc1nc2ncn(CCO)c2c(=O)[nH]1` ?
f

Test call, this compound: `N#Cc1ccc2c(c1)-c1cc(C#N)ccc1C2c1ccccc1`
f

Hello, I am checking results. What call was entered for `CCCCCC[P+](c1ccccc1)(c1ccccc1)c1ccccc1` ?
t

For this compound, state the assay outcome: N#CC(NNC(=O)Cc1ccccc1)c1ccc(O)cc1 (stereo not given)
f

What is the recorded call for this compound in the test? `O=C(Cc1ccccc1)SC(=O)Cc1ccccc1`
f

Look up the recorded call for `CCCCCCCC(=O)Nc1cccc(O)c1` in this test.
f

# lookup: test call for `O=Nc1ccc2ccccc2c1N=Nc1ccccc1C(=O)O`
t

Any idea what this test logged for `CC(C)c1cc(C(C)C)c(S(=O)(=O)N/N=C2\C=CCC(C)(C)C2)c(C(C)C)c1` ?
f
